Where do the numbers come from? From patent US20220324865A1.

Target: human EP3 receptor (Homo sapiens)
Sequence (P43115 1-390): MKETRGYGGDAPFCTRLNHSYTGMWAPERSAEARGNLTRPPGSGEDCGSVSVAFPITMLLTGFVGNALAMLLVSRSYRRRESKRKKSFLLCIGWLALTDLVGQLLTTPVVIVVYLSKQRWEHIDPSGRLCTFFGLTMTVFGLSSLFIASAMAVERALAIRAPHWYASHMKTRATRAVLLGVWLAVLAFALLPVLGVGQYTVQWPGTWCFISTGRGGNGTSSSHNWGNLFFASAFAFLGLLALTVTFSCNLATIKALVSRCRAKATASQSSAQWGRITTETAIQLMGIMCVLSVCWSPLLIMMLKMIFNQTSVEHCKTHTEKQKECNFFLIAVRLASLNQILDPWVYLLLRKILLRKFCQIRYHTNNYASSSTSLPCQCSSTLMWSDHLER
Assay: Cellular in vitro assay for determining EP3 receptor activity (human EP3 cell line, sulprostone-stimulated calcium luminescence)
Conditions: CHO cells expressing human EP3 and mitochondrial Clytin; antagonist mode, sulprostone at EC50; read-out: EP3 CHO mtCLY ANTAG IC50
Measure: IC50 (nM)
Provide only the numeric value, understood in nM.

1. COc1ccc(CNC(=O)c2cc3c(=O)[nH]c(-c4ccc5c(c4)N(C)CCO5)cn3n2)cc1OC: 2
2. Cc1ccc(-c2cn3nc(C(=O)NCC(O)C(F)(F)F)c(C4CC4)c3c(=O)[nH]2)cc1C(F)(F)F (racemic) [6-243]: 2
3. CN1CC(NC(=O)c2nn3cc(-c4ccc(Cl)c(Cl)c4)[nH]c(=O)c3c2C2CC2)(c2ccc(F)cc2)C1: 2.5
4. Cc1ccc(-c2cn3nc(C(=O)N[C@@H](C4CC4)C(C)(C)O)c(C4CC4)c3c(=O)[nH]2)cc1Cl: 2.85
5. CCN1CCC(NC(=O)c2nn3cc(-c4ccc(Cl)c(C)c4)[nH]c(=O)c3c2C2CC2)(C(F)(F)F)C1 (single isomer, unassigned) [6-293]: 5.7

Request: Form entry - test system: human EP3 receptor (Homo sapiens); read-out: IC50; compound: Cc1cc(-c2cn3nc(C(=O)NC(C)C4CCC4)c(C4CC4)c3c(=O)[nH]2)ccc1Cl (racemic) [6-298]
Response: 2.85

Request: Under human EP3 receptor (Homo sapiens): IC50 value of CN1CCC(NC(=O)c2nn3cc(-c4ccc5ccccc5c4)[nH]c(=O)c3c2C(F)(F)F)(c2ccc(F)cc2)CC1 ?
Response: 9.55

Request: Which measured IC50 belongs to Cc1cc(-c2cn3nc(C(=O)N[C@@H](c4ccc(F)cc4)C(C)(C)O)c(C(C)C)c3c(=O)[nH]2)ccc1Cl , tested on human EP3 receptor (Homo sapiens)?
Response: 2.3

Request: Given the entry CC(COc1cc(Cl)cc(Cl)c1)NC(=O)c1nn2cc(-c3ccc4ccccc4c3)[nH]c(=O)c2c1C(F)(F)F (stereo not drawn) , what IC50 was observed with human EP3 receptor (Homo sapiens)?
Response: 3.95
